Overview of recorded self-cleavage for various variants
B1: Twister Ribozyme (parent)
chain: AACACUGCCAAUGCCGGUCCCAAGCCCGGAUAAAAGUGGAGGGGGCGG

Variants of: B1
Procedure Summary: self-cleavage, relative activity (ratio to wild type); higher = more cleavage; co-transcriptional

Seq: AACACUGCCAAUGCCGGUCCCAAGCCAGGAUAAAAGUGGAGGGGACGG [C27A G45A]
self-cleavage: 0.334
//
Seq: AACACUGCCAAAGCCGGUCCCAACCCCGGAUAAAAGUGGAGGGGGCGG [U12A G24C]
self-cleavage: 0.097
//
Seq: AACACUGCCAAUGCGGAUCCCAAGCCCGGAUAAAAGUGGAGGGGGCGG [C15G G17A]
self-cleavage: 0.326
//
Seq: AACACUGCCAAUGGCGUUCCCAAGCCCGGAUAAAAGUGGAGGGGGCGG [C14G G17U]
self-cleavage: 0.101
//
Seq: AACACUGCAAAUGCCGGUCCUAAGCCCGGAUAAAAGUGGAGGGGGCGG [C9A C21U]
self-cleavage: 0.0545
//
Seq: AACUCUGCCAACGCCGGUCCCAAGCCCGGAUAAAAGUGGAGGGGGCGG [A4U U12C]
self-cleavage: 0.0758
//
Seq: AACACUGCCAAUGCCGGUCCCAAGACCGGAUAAAAUUGGAGGGGGCGG [C25A G36U]
self-cleavage: 0.0554
//
Seq: AACACUGCCAAUGCCGGUCCUAAGCCCGGAUAAAAGCGGAGGGGGCGG [C21U U37C]
self-cleavage: 0.0764
//
Seq: AACAAUGCCAAUGCCGGUCCCCAGCCCGGAUAAAAGUGGAGGGGGCGG [C5A A22C]
self-cleavage: 0.601
//
Seq: AACACUGCCAAUGCCGGUCCCAAGCCCGGAUAAUAGUGGAGGGGGCGU [A34U G48U]
self-cleavage: 0.811
//
Seq: AACACUUCCAAUGCCGGGCCCAAGCCCGGAUAAAAGUGGAGGGGGCGG [G7U U18G]
self-cleavage: 0.0649
//
Seq: UACACUGCCAAUGCCGGUCACAAGCCCGGAUAAAAGUGGAGGGGGCGG [A1U C20A]
self-cleavage: 0.0791
//
Seq: AGCACUUCCAAUGCCGGUCCCAAGCCCGGAUAAAAGUGGAGGGGGCGG [A2G G7U]
self-cleavage: 0.0648
//
Seq: AACACUGCCAGUGCCGGUCACAAGCCCGGAUAAAAGUGGAGGGGGCGG [A11G C20A]
self-cleavage: 0.117
//
Seq: AACACUGUCAAUGCCGGUCCCAAGCCCGGAUAAAAGUGGAGGGGCCGG [C8U G45C]
self-cleavage: 0.141
//
Seq: AACACUGCCAAUGCCUGUCCCACGCCCGGAUAAAAGUGGAGGGGGCGG [G16U A23C]
self-cleavage: 0.115
//
Seq: AACACUGCCAAUGCCGGUCCCAAGCCCGGCUAAAAGUGGAUGGGGCGG [A30C G41U]
self-cleavage: 0.156
//
Seq: AACAUUGCCAAUGCCGGUCCCAAGCCCGGAUAAAAGUGGAGGGUGCGG [C5U G44U]
self-cleavage: 0.816
//
Seq: AACACUGCCAAUGCCGGUCCCAAGCCCGGAUGAAAGUGGAGGGGGCCG [A32G G47C]
self-cleavage: 0.473
//
Seq: AACACUGCCAAGGCCGGUCCCAAGCCCGGAUACAAGUGGAGGGGGCGG [U12G A33C]
self-cleavage: 0.685
//
Seq: AACACUGCCAAUGCCGGUCCCAAGCCAGGAUAACAGUGGAGGGGGCGG [C27A A34C]
self-cleavage: 0.0922
//
Seq: AACACUGCCAAUGCCGGUCCCAAGCACGGAUAAAAGUGUAGGGGGCGG [C26A G39U]
self-cleavage: 0.116
